The reported numbers originate from patent US6255100A.

Test system: MT4 cells
Experiment: Cytotoxicity in MT4-cells (MTT)
Description: To evaluate the anti-HIV potential in additional cell lines and particularly in a monocytic cell line (U937), cellular toxicity of the test compound to these cell lines is first assessed. Jurkat and U937 cell suspensions are adjusted to 1×10^5 cells/ml and incubated in the presence of various concentrations of test compound. After 48 hours the amounts of cells per ml are compared by staining with MTT. Cytoxicity in MT4 cells may be measured in the same way. […]
Non-standard residues stand in square brackets, D forms with d. Residues, ends and D or L forms follow the SMILES beside them. MeBmt = C/C=C/C[C@@H](C)[C@@H](O)[C@H](NC)C(=O)O; NMeL = CN[C@@H](CC(C)C)C(=O)O; NMeV = CN[C@H](C(=O)O)C(C)C; dNMeA = CN[C@H](C)C(=O)O

>  <MOLECULE>
CCCC[C@@H](C)[C@@H](O)[C@H]1C(=O)N[C@@H](CC)C(=O)N(C)CC(=O)N(C)[C@@H](CC(C)(C)O)C(=O)N[C@@H](C(C)C)C(=O)N(C)[C@@H](CC(C)C)C(=O)N[C@@H](C)C(=O)N[C@H](C)C(=O)N(C)[C@@H](CC(C)C)C(=O)N(C)[C@@H](CC(C)C)C(=O)N(C)[C@@H](C(C)C)C(=O)N1C [Compound a)]

>  <READOUT_RELATION>
=

>  <Cytotoxicity, µg/mL>
16.3

$$$$
>  <MOLECULE>
C/C=C/C[C@@H](C)[C@@H](O)[C@H]1C(=O)N[C@@H](CC)C(=O)N(C)CC(=O)N(C)[C@@H](CC(C)C)C(=O)N[C@@H](C(C)C)C(=O)N(C)[C@@H](C)C(=O)N[C@@H](C)C(=O)N[C@H](C)C(=O)N(C)[C@@H](CC(C)C)C(=O)N(C)[C@@H](CC(C)C)C(=O)N(C)[C@@H](C(C)C)C(=O)N1C [Compound k), [MeAla]^6 -Ciclosporin]

>  <READOUT_RELATION>
=

>  <Cytotoxicity, µg/mL>
5.2

$$$$
>  <MOLECULE>
C/C=C/C[C@@H](C)[C@@H](O)[C@H]1C(=O)N[C@@H](CC)C(=O)N(C)CC(=O)N(C)[C@@H](CC(C)(C)O)C(=O)N[C@@H](C(C)C)C(=O)N(C)[C@@H](CC(C)C)C(=O)N[C@@H](C)C(=O)N[C@H](C)C(=O)N(C)[C@@H](CC(C)C)C(=O)N(C)[C@@H](CC(C)C)C(=O)N(C)[C@@H](C(C)C)C(=O)N1C [Compound e), [γ-hydroxy-MeLeu]^4 -Ciclosporin]

>  <READOUT_RELATION>
=

>  <Cytotoxicity, µg/mL>
15.5

$$$$
>  <MOLECULE>
C/C=C/C[C@@H](C)[C@@H](O)[C@H]1C(=O)N[C@@H](CC)C(=O)N(C)CC(=O)N(C)[C@@H](CC(C)C)C(=O)N[C@@H](C(C)C)C(=O)N(C)[C@@H](CC(C)C)C(=O)N[C@@H](C)C(=O)N[C@H](C)C(=O)N(C)[C@@H](CC(C)(C)O)C(=O)N(C)[C@@H](CC(C)C)C(=O)N(C)[C@@H](C(C)C)C(=O)N1C [l), [γ-hydroxy-MeLeu]^9 -Ciclosporin]

>  <READOUT_RELATION>
>

>  <Cytotoxicity, µg/mL>
10

$$$$
>  <MOLECULE>
C/C=C/C[C@@H](C)[C@@H](O)[C@H]1C(=O)N[C@@H](CC)C(=O)N(C)CC(=O)N(C)[C@@H](CC(C)C)C(=O)N(C)[C@@H](C(C)C)C(=O)N(C)[C@@H](CC(C)C)C(=O)N[C@@H](C)C(=O)N[C@H](C)C(=O)N(C)[C@@H](CC(C)C)C(=O)N(C)[C@@H](CC(C)C)C(=O)N(C)[C@@H](C(C)C)C(=O)N1C [Compound h), [MeVal]^5 -Ciclosporin]

>  <READOUT_RELATION>
=

>  <Cytotoxicity, µg/mL>
4.4

$$$$
>  <MOLECULE>
CC[C@@H]1NC(=O)[C@H]([C@H](O)[C@H](C)C/C=C/CO)N(C)C(=O)[C@H](C(C)C)N(C)C(=O)[C@H](CC(C)C)N(C)C(=O)[C@H](CC(C)C)N(C)C(=O)[C@@H](C)NC(=O)[C@H](C)NC(=O)[C@H](CC(C)C)N(C)C(=O)[C@H](C(C)C)NC(=O)[C@H](CC(C)C)N(C)C(=O)CN(C)C1=O [Compound j), [8'-hydroxy-MeBmt]^1 -Ciclosporin]

>  <READOUT_RELATION>
=

>  <Cytotoxicity, µg/mL>
10.6

$$$$
>  <MOLECULE>
C/C=C/C[C@@H](C)[C@@H](O)[C@H]1C(=O)N[C@@H](CCC)C(=O)N(C)CC(=O)N(C)[C@@H](CC(C)(C)O)C(=O)N[C@@H](C(C)C)C(=O)N(C)[C@@H](CC(C)C)C(=O)N[C@@H](C)C(=O)N[C@H](C)C(=O)N(C)[C@@H](CC(C)C)C(=O)N(C)[C@@H](CC(C)C)C(=O)N(C)[C@@H](C(C)C)C(=O)N1C [Compound f)]

>  <READOUT_RELATION>
=

>  <Cytotoxicity, µg/mL>
14.0

$$$$
>  <MOLECULE>
C/C=C/C[C@@H](C)[C@@H](O)[C@H]1C(=O)N[C@@H]([C@@H](C)OC)C(=O)N(C)[C@H](C)C(=O)N(C)[C@@H](CC(C)C)C(=O)N(C)[C@@H](C(C)C)C(=O)N(C)[C@@H](CC(C)C)C(=O)N[C@@H](C)C(=O)N[C@H](C)C(=O)N(C)[C@@H](CC(C)C)C(=O)N(C)[C@@H](CC(C)C)C(=O)N(C)[C@@H](C(C)C)C(=O)N1C [Compound i)] (cyclo(A[dA][NMeL][NMeL][NMeV][MeBmt]T(Me)[dNMeA][NMeL][NMeV][NMeL]))

>  <READOUT_RELATION>
>

>  <Cytotoxicity, µg/mL>
10

$$$$
